As shown below, each of these compounds has a reported pIC50 value.
target: HIV-1 RT K103N/Y181C (Human immunodeficiency virus type 1 group M subtype B, UniProt P03366, K702N/Y780C); construct: mutations that occur in the reverse transcriptase segment of the pol gene; experiment: Reverse Transcriptase (RT) assay, double mutant K103N/Y181C
pIC50: −log10 of the molar value.

smilesCode	valueReported
CCN1c2ncc(CCOc3cccc4c3CNC(=O)C4)cc2C(=O)N(C)c2cccnc21	> 7.30

**Q:** Write down pIC50 measured for item CCN1c2ncc(CCOc3cccc4c3CNC(=O)N4CC(=O)O)cc2C(=O)N(C)c2cccnc21
**A:** < 7.00

**Q:** State its pIC50 for this compound: CCN1c2ncc(CCOc3cccc4c3CNC(=O)N4)cc2C(=O)Nc2c(C)ccnc21
**A:** < 7.00

**Q:** Please report the measured pIC50 for CCN1C(=O)c2cc(CCOc3cccc4c3CNC(=O)N4)cnc2N(CC)c2ncccc21
**A:** < 7.00

---

biological target: HIV-1 RT K103N/Y181C (Human immunodeficiency virus type 1 group M subtype B, UniProt P03366, K702N/Y780C); construct: mutations that occur in the reverse transcriptase segment of the pol gene; assay: Reverse Transcriptase (RT) assay, double mutant K103N/Y181C
experimentalReadout: IC50

Take a look at these entries with their results.
compound	IC50
CCN1c2ncc(CCOc3ccc4c(c3)COC(=O)N4)cc2C(=O)N(C)c2cccnc21	> 100 nM
CCN1c2ncc(CCOc3cccc4[nH]c(=O)n(C)c34)cc2C(=O)N(C)c2cccnc21	> 100 nM

Then there is this compound:
**Q:** Report measured IC50; entry is CCN1c2ncc(CCOc3cccc4c3C(C)C(=O)N4C)cc2C(=O)N(C)c2cccnc21 (stereo not drawn)
**A:** > 100 nM

---

tested on: HIV-1 K103N/Y181C (103/181); test: Cell-based assay, 103/181 double mutant; details: Human immunodeficiency virus 1, read-out: EC50 103/181
Entries annotated with measured EC50

// known answers, use as guide
smilesCode	studySystem	EC50
CCN1c2ncc(CCOc3cccc4c3CNC(=O)N4)cc2C(=O)N(C)c2cccnc21	HIV-1 K103N/Y181C (103/181)	< 10 nM
CCN1c2ncc(CCOc3cccc4c3CNC4=O)cc2C(=O)N(C)c2cccnc21	HIV-1 K103N/Y181C (103/181)	< 10 nM
CCN1c2ncc(CCOc3cccc4c3CN(O)C4=O)cc2C(=O)N(C)c2cccnc21	HIV-1 K103N/Y181C (103/181)	10 to 50 nM
CCN1c2ncc(CCOc3cccc4c3CN(C)C(=O)N4C)cc2C(=O)N(C)c2cccnc21	HIV-1 K103N/Y181C (103/181)	10 to 50 nM

**Q:** Name the recorded EC50 of the compound listed here: CCN1c2ncc(CCOc3cccc4c3CNC4=O)cc2C(=O)Nc2c(C)ccnc21
**A:** < 10 nM

**Q:** Specify reported EC50 for the compound shown: CCN1c2ncc(CCOc3cccc4c3CNC(=O)N4C)cc2C(=O)N(C)c2cccnc21
**A:** < 10 nM

**Q:** Recall and state the measured EC50 for CCN1c2ncc(CCOc3cccc4c3CNC(=O)N4CC(=O)O)cc2C(=O)N(C)c2cccnc21 .
**A:** > 50 nM

**Q:** Give EC50 for the following compound: CCN1c2ncc(CCOc3cccc4c3CNC(=O)N4)cc2C(=O)Nc2c(C)ccnc21
**A:** 10 to 50 nM

---

biological target: HIV-1 RT WT (Human immunodeficiency virus type 1 group M subtype B); construct: mutations that occur in the reverse transcriptase segment of the pol gene; test: Reverse Transcriptase (RT) assay, wild type
pIC50: −log10 of the molar value.
experimentalReadout: pIC50

**Q:** State pIC50 (HIV-1 RT WT (Human immunodeficiency virus type 1 group M subtype B)) of CCN1c2ncc(CCOc3cccc4c3COC(=O)N4)cc2C(=O)N(C)c2cccnc21 .
**A:** > 7.30

**Q:** Lab note: record pIC50 of CCN1c2ncc(CCOc3cccc4c3CNC(=O)N4C)cc2C(=O)N(C)c2cccnc21 tested on HIV-1 RT WT (Human immunodeficiency virus type 1 group M subtype B).
**A:** > 7.30

**Q:** Would you please give the reported pIC50 of CCN1c2ncc(CCOc3cccc4c3CC(=O)N4C)cc2C(=O)N(C)c2cccnc21 with HIV-1 RT WT (Human immunodeficiency virus type 1 group M subtype B)?
**A:** 7.00 to 7.30

**Q:** State pIC50 on HIV-1 RT WT (Human immunodeficiency virus type 1 group M subtype B). Entry: CCN1c2ncc(CCOc3cccc4c3CN(O)C4=O)cc2C(=O)N(C)c2cccnc21
**A:** 7.00 to 7.30

**Q:** Report measured pIC50 on HIV-1 RT WT (Human immunodeficiency virus type 1 group M subtype B); entry: CCN1c2ncc(CCOc3ccc4on(C)c(=O)c4c3)cc2C(=O)Nc2c(C)cc(F)nc21
**A:** > 7.30

**Q:** // fetch pIC50 for CCN1c2ncc(CCOc3ccc4[nH]c(=O)[nH]c4c3)cc2C(=O)N(C)c2cccnc21 ; system: HIV-1 RT WT (Human immunodeficiency virus type 1 group M subtype B)
**A:** 7.00 to 7.30

**Q:** Provide HIV-1 RT WT (Human immunodeficiency virus type 1 group M subtype B) pIC50 reading for CCN1c2ncc(CCOc3cccc4c3CCNC4=O)cc2C(=O)N(C)c2cccnc21 .
**A:** > 7.30

**Q:** GET pIC50 where system = HIV-1 RT WT (Human immunodeficiency virus type 1 group M subtype B) and item = CCN1c2ncc(CCOc3ccc4c(c3)CN(C)C(=O)N4C)cc2C(=O)N(C)c2cccnc21
**A:** > 7.30

**Q:** Report value only: pIC50, HIV-1 RT WT (Human immunodeficiency virus type 1 group M subtype B), CCN1c2ncc(CCOc3cccc4c3n(C)c(=O)n4C)cc2C(=O)N(C)c2cccnc21
**A:** 7.00 to 7.30

**Q:** Provide pIC50, tested on HIV-1 RT WT (Human immunodeficiency virus type 1 group M subtype B), for CCN1c2ncc(CCOc3cccc4c3COC(=O)N4CC(=O)O)cc2C(=O)N(C)c2cccnc21 .
**A:** 7.00 to 7.30

---

target: HIV-1 RT K103N/Y181C (Human immunodeficiency virus type 1 group M subtype B, UniProt P03366, K702N/Y780C); construct: mutations that occur in the reverse transcriptase segment of the pol gene; test: Reverse Transcriptase (RT) assay, double mutant K103N/Y181C
experimentalReadout: IC50

Recorded IC50, per entry:
compound	IC50
CCN1c2ncc(CCOc3cccc4c3CN(Cc3ccncc3)C4=O)cc2C(=O)N(C)c2cccnc21 [Entry 104]	50 to 100 nM
CCN1c2ncc(CCOc3ccc4[nH]c(=O)[nH]c4c3)cc2C(=O)N(C)c2cccnc21 [Entry 122]	> 100 nM
CCN1c2ncc(CCOc3ccc4c(c3)CNC(=O)N4)cc2C(=O)N(C)c2cccnc21 [Entry 121]	> 100 nM
CCN1c2ncc(CCOc3cccc4c3COC(=O)N4)cc2C(=O)N(C)c2cccnc21 [Entry 126]	> 100 nM
CCN1c2ncc(CCOc3cccc4c3COC(=O)N4)cc2C(=O)Nc2c(C)ccnc21 [Entry 127]	> 100 nM
CCN1c2ncc(CCOc3cccc4c3CN(C)C(=O)N4C)cc2C(=O)Nc2c(C)ccnc21 [Entry 115]	> 100 nM

**Q:** Look up and report measured IC50 for this entry: CCN1c2ncc(CCOc3ccc4on(C)c(=O)c4c3)cc2C(=O)Nc2c(C)cc(F)nc21 [Entry 130]
**A:** > 100 nM

**Q:** Respond only with IC50 recorded for CCN1c2ncc(CCOc3ccc4c(c3)CN(C)C(=O)N4C)cc2C(=O)N(C)c2cccnc21 [Entry 120]
**A:** > 100 nM

---

pIC50 listing for selected molecules.
target: HIV-1 RT WT (Human immunodeficiency virus type 1 group M subtype B, UniProt P03366); construct: mutations that occur in the reverse transcriptase segment of the pol gene; test: Reverse Transcriptase (RT) assay, wild type
pIC50: −log10 of the molar value.

molecule	pIC50
CCN1c2ncc(CCOc3cccc4[nH]c(=O)n(C)c34)cc2C(=O)N(C)c2cccnc21	7.00 to 7.30
CCN1c2ncc(CCOc3cccc4c3CN(C)C(=O)N4C)cc2C(=O)Nc2c(C)ccnc21	> 7.30
CCN1c2ncc(CCOc3cccc4c3C(C)C(=O)N4C)cc2C(=O)N(C)c2cccnc21 (stereo not shown)	7.00 to 7.30

Now turn to the next molecule.
**Q:** Query pIC50 for CCN1c2ncc(CCOc3cccc4c3C(C)(C)OC(=O)N4)cc2C(=O)N(C)c2cccnc21
**A:** 7.00 to 7.30

---

biological target: HIV-1 RT K103N/Y181C (Human immunodeficiency virus type 1 group M subtype B, UniProt P03366, K702N/Y780C); construct: mutations that occur in the reverse transcriptase segment of the pol gene; test: Reverse Transcriptase (RT) assay, double mutant K103N/Y181C
experimentalReadout: IC50

smilesCode	valueReported
CCN1c2ncc(CCOc3cccc4c3CNC(=O)N4C)cc2C(=O)Nc2c(C)ccnc21	> 100 nM
CCN1c2ncc(CCOc3cccc4c3CNC4=O)cc2C(=O)Nc2c(C)ccnc21	> 100 nM
CCN1c2ncc(CCOc3cccc4c3n(C)c(=O)n4C)cc2C(=O)N(C)c2cccnc21	> 100 nM
CCN1c2ncc(CCOc3cccc4c3CNC(=O)N4C)cc2C(=O)N(C)c2cccnc21	< 50 nM
CCN1c2ncc(CCOc3cccc4c3CNC(=O)N4)cc2C(=O)N(C)c2cccnc21	> 100 nM

**Q:** Could you please provide reported IC50 for CCN1c2ncc(CCOc3ccc4c(c3)CNC(=O)N4C)cc2C(=O)N(C)c2cccnc21 ? Thanks!
**A:** > 100 nM

**Q:** Report IC50, nothing else, for this compound: CCN1c2ncc(CCOc3cccc4c3CN(C)C(=O)N4C)cc2C(=O)N(C)c2cccnc21
**A:** > 100 nM

**Q:** In one line, give reported IC50 of the entry CCN1c2ncc(CCOc3cccc4c3CCNC4=O)cc2C(=O)N(C)c2cccnc21 .
**A:** 50 to 100 nM

**Q:** Dear colleague, please send me the reported IC50 for CCN1c2ncc(CCOc3cccc4c3CN(O)C4=O)cc2C(=O)N(C)c2cccnc21 when you can.
**A:** > 100 nM
